# Test system: SW-620 colon
# Method Description: NCI-60 one-dose screen, 48 h
# Condition Set: 10 µM unless noted
Compounds without any hit were thinned out: in the full panel of roughly 83,000, 20% have a hit. Activity calls are given as the source filed them. How the source made its calls: active means growth percent below 10; inactive means the rest.
Pick from Y (active), N (inactive) when you respond.

query: Per the assay record, what outcome was assigned to C#CC(F)(F)[C@]1(O)CC[C@H]2[C@@H]3CCC4=CC(=O)CCC4=C3[C@@H](c3ccc(C(C)=O)cc3)C[C@@]21C ?
result: N

query: // return assay outcome for Cc1cc2nc(NC(=O)CN3CCN(CCN4C(=O)c5cccc6cccc(c56)C4=O)CC3)sc2cc1C
result: N

query: Short answer needed: outcome of this test for CC(C)C[C@@H](NC(=O)[C@@H](Cc1ccccc1)NC(=O)c1cnccn1)B1Oc2ccc(C[C@H](NC(=O)[C@H](Cc3ccc4c(c3)OB([C@@H](CC(C)C)NC(=O)[C@@H](Cc3ccccc3)NC(=O)c3cnccn3)O4)NC(=O)[C@@H](N)CC3CCC4OB([C@@H](CC(C)C)NC(=O)[C@@H](CC5CCCCC5)NC(=O)C5CNCCN5)OC4C3)C(=O)NCCCC[C@@H]3NC(=O)[C@@H](Cc4ccccc4)NC(=O)[C@H](CC(=O)O)NC(=O)CNC(=O)[C@H](CCCNC(=N)N)NC3=O)cc2O1 (stereo partly specified) ?
result: Y

query: Please share the test call associated with CCOc1ccc(-n2nc(C(=O)Nc3ccccc3)nc2-c2cc(OC)c(OC)c(OC)c2)cc1 .
result: N

query: Write down the call the test reported for this compound. Item: COc1cc(/C=C/c2cc(/C=C/c3ccc(O)c(OC)c3)n(-c3c(Cl)cccc3Cl)c(=O)n2)ccc1O
result: N

query: Hey, what did the test say about O=C1/C(=C/c2ccc(OCCCOc3ccc(Cl)cc3)cc2)N=C2SCCCN12 ?
result: N

query: Name the outcome recorded for O=[N+]([O-])c1cnc(N2CCN(CC3CC3)CC2)nc1N1CCN(CC2CC2)CC1 in the assay.
result: N

query: How did this test come out for Fc1ccc(CNc2cccc3[nH]c(C(F)(F)F)nc23)cc1 ?
result: N

query: Answer briefly: the call reported for CCCN1CCN(c2ccc3nc(-c4ccc5nc(-c6ccc(OCC)cc6)[nH]c5c4)[nH]c3c2)CC1 in this assay.
result: Y

###

# System: UO-31 renal
# Method Description: NCI-60 one-dose screen, 48 h
# Condition Set: 10 µM unless noted
Compounds without any hit were thinned out: in the full panel of roughly 83,000, 20% have a hit. The source made the active and inactive calls. How the source made its calls: active means growth percent below 10; inactive means the rest.
Select the correct class. Options are t = active, f = inactive and nothing else.

Examples with answers:
Substance Smiles	Label Class
CCN(CC)CCCCNc1c2ccc(Cl)cc2nc2ccc(OC)cc12	t
CCOc1nc(-c2ccccc2)cc2c(O)c(C(=O)N/N=C/c3ccc(O)cc3O)[nH]c(=O)c12	t
O=[N+]([O-])c1ccccc1/C=N\NC(=S)N/N=C/c1ccccc1[N+](=O)[O-]	f
Cc1[nH]c(-c2ccc3cc[nH]c3c2)c2c1C(=O)CCCC2	f

Next item in the queue.
query: I'd appreciate the recorded outcome for COc1ccc2cc(-c3nn(-c4ccc(C(=O)O)cc4)cc3CO)ccc2c1 from this test.
result: f

###

# System: LOX IMVI melanoma
# Method Description: NCI-60 one-dose screen, 48 h
# Condition Set: 10 µM unless noted
# Procedure: Growth inhibition of the LOX IMVI human tumor cell line is measured as a screen for anti-cancer activity. Cells are grown in 96 well plates and exposed to the test compound for 48 hours. Compounds are tested at a single concentration, which is 10^-5 M for most compounds. The reported endpoint is percent growth (GI% or GIPRCNT), where numbers from 0 - 100% represent growth inhibition, and numbers from -100% - 0 represent cell death. For example, a value of 40 represents 60% growth inhibition. […]
The panel holds about 83,000 compounds, 20% with a hit somewhere; the sample as a whole holds those more often. The source made the active and inactive calls. Rule for the calls: active = growth percent below 10; inactive = the rest.
Your answer must be one of the following: 1 (active), 0 (inactive)

As a guide, the following entries are already answered.
Compound	Label Class
COc1ccc(/C=C\c2cc(OC)c(OC)c(OC)c2)cc1OC(=O)c1cccc(Cn2cc(CCOC(=O)[C@H](N)Cc3cn(C)c4ccccc34)nn2)c1	0
CCCCCC(=O)Oc1ccc(/C(=C(\C)c2ccc(OC)cc2)c2ccc(OCCN3CCCCC3)cc2)cc1	0
CCN(CC)c1ccc(/C=N\NC(=O)/C=C/C=C/c2ccc3c(c2)OCO3)c(O)c1	0
Cc1ccc(-c2onc3c(=O)[nH]nc(-c4ccccc4)c23)cc1	0

query: Name the outcome recorded for Cn1ccnc1C(=O)/C=C/c1ccccc1 in the assay.
result: 0

query: Which outcome did this test record for the compound C=CC(=O)Nc1cccc(-c2nc(SC)nc(Nc3cccc(OC)c3)c2C#N)c1 ?
result: 0

query: What call does the record list for CCOc1cc2c(cc1OCC)C(c1cc(OC)c(O)cc1Cl)NCC2 (configuration not stated) ?
result: 0

query: Could you please tell me the result logged for Nc1ccc(S(=O)(=O)O)c2ccc(N=Nc3ccc(N=Nc4ccc(S(=O)(=O)O)cc4)c4ccccc34)c(O)c12 in this assay?
result: 0

query: Please indicate how the test categorized COc1ccccc1Nc1nc(-c2cc3cccc(C(F)(F)F)c3oc2=O)cs1 .
result: 0

###

# Test system: HCC-2998 colon
# Method Description: NCI-60 one-dose screen, 48 h (100 = growth as untreated, 0 = no growth, -100 = all killed)
# Condition Set: 10 µM unless noted
Compounds without any hit were thinned out: in the full panel of roughly 83,000, 20% have a hit. The source made the active and inactive calls. Rule for the calls: active = growth percent below 10; inactive = the rest.
# maps each entry to its growth

Consider the worked cases shown below.
Compound	growth
N=C(N)c1ccc(-c2ccc(-c3ccc4ccccc4c3)s2)s1	-69.1% (active)
Cc1cn2c(/C=C3/C(=O)Nc4c3ccc3ccccc43)c(C(F)(F)F)nc2s1	46.6% (inactive)
O=C(COc1ccc(/C=C2\CSc3ccccc3C2=O)cc1)Nc1nccs1	103% (inactive)

query: Given the compound Cc1cc(N2CCCCC2)nc(NC2CCCC(Nc3ccnc4cc(Cl)ccc34)C2)n1 (stereo not given) , write its reported growth.
result: -62.3% (active)

query: Tell me measured growth for CCN1CCN(c2nc(NCCNc3ccnc4cc(Cl)ccc34)c3ccccc3n2)CC1 please.
result: 35.8% (inactive)

###

# Test system: NCI-H226 lung
# Method Description: NCI-60 one-dose screen, 48 h (100 = growth as untreated, 0 = no growth, -100 = all killed)
# Condition Set: 10 µM unless noted
# Protocol: Growth inhibition of the NCI-H226 human Non-Small Cell Lung tumor cell line is measured as a screen for anti-cancer activity. Cells are grown in 96 well plates and exposed to the test compound for 48 hours. Compounds are tested at a single concentration, which is 10^-5 M for most compounds. The reported endpoint is percent growth (GI% or GIPRCNT), where numbers from 0 - 100% represent growth inhibition, and numbers from -100% - 0 represent cell death. […]
The panel holds about 83,000 compounds, 20% with a hit somewhere; the sample as a whole holds those more often.
Measure Name: growth (%)
# unit: % | format: bare number

# annotated cases, reported growth shown
Molecule	Unit Abbreviation	Quantitative Result
CC(C)n1c(/C=C/[C@@H](O)C[C@@H](O)CC(=O)O)c(-c2ccc(F)cc2)c2ccccc21	%	64.1
O=[N+]([O-])c1ccccc1/C=N\NC(=S)N/N=C/c1ccccc1[N+](=O)[O-]	%	83.1
Cc1ccc(C(SCC(N)C(=O)O)(c2ccccc2)c2ccc(C)cc2)cc1 (stereo not given)	%	56.3

query: Please indicate recorded growth of COc1ccc2[nH]cc(-c3noc(C(=O)c4cn(C)c5ccc(F)cc45)n3)c2c1 measured with NCI-H226 lung.
result: 83.5

query: Find growth for COc1ccc(-c2cc(-c3ccc(Nc4ccnc5cc(Cl)ccc45)cc3)nc(N3CCOCC3)n2)cc1 on NCI-H226 lung and write it down.
result: 69.4

###

# Tested on: K-562 leukemia
# Method Description: NCI-60 one-dose screen, 48 h
# Condition Set: 10 µM unless noted
About 83,000 compounds went through this panel and 20% of them were active in at least one assay; those are over-represented in the sample as a whole. Active and inactive are the calls of the source. How the source made its calls: active means growth percent below 10; inactive means the rest.
Just give me one of these, please: YES = active, NO = inactive

Molecule	Label Class
CCCOc1ccc2nc(NC(=O)OC)[nH]c2c1	NO
FC(F)(F)c1[nH]ncc1-c1nc2ccc3n[nH]c(C#Cc4cccnc4)c3c2c2c1CCCC2	NO
CNC(=O)c1cc(Oc2ccc(NC(=O)Nc3ccc(Cl)c(OC(F)(F)F)c3)c(F)c2)ccn1	YES
O=C(N=Nc1c(O)[nH]c2ccc(Br)cc12)c1cc(-c2ccccc2)on1	NO
Cn1c(=O)c2c(nc3n(-c4ccc(Cl)cc4Cl)c(Sc4nc(-c5ccccc5)c(C#N)c(=O)[nH]4)cn23)n(C)c1=O	NO
COc1ccc(/C=C\c2cc(OC)c(OC)c(OC)c2)cc1OCC(=O)Nc1ccc2nc(C)sc2c1	NO
CN1CCN(CCCOc2cccc3nc(Nc4cc(Cl)cc(Cl)c4)ccc23)CC1	YES
CCCCN1CCCn2c1nc1c2c(=O)n(CCC)c(=O)n1CCC	NO
CC(O)CN1CC(O)=C(c2nc3ccccc3s2)C1=N (centres undefined)	NO
CCOc1cc2ncc(C#N)c(Nc3ccc(OCc4cccc(F)c4)c(Cl)c3)c2cc1NC(=O)CCCCC1CCSS1 (centres undefined)	NO

query: Identify the outcome logged in this assay for the molecule shown: COc1cc2c(cc1-c1c(C)noc1C)ncc1nc(C3CCCCC3)n([C@H](C)COC(F)F)c12
result: NO

query: Dear colleague, could you share the recorded outcome for COc1ccc(S(=O)(=O)N2CC3(COC3)C2)cc1NC(=O)c1[nH]c(C)c2c1CCCCC2=O when you have a moment?
result: NO

query: Recorded test outcome, item CCOC(=O)n1cc(-c2nonc2-c2cn(C)c3ncccc23)c2ccccc21
result: NO

query: Please share the test call associated with CC(=O)Nc1ccc(S(=O)(=O)Nc2cccc(-c3nc(-c4ccc(NC(=O)c5cccnc5)cc4Cl)no3)c2)cc1 .
result: NO

query: Which outcome did this test record for the molecule O=S(=O)(Nc1ccc(OC(F)F)cc1)c1ccc(-c2cnc(C3CC3)o2)cc1 ?
result: NO
